- TARGET OF ASSAY: Human D1 (Homo sapiens (Human), UniProt P21728)
- Sequence (P21728 whole entry): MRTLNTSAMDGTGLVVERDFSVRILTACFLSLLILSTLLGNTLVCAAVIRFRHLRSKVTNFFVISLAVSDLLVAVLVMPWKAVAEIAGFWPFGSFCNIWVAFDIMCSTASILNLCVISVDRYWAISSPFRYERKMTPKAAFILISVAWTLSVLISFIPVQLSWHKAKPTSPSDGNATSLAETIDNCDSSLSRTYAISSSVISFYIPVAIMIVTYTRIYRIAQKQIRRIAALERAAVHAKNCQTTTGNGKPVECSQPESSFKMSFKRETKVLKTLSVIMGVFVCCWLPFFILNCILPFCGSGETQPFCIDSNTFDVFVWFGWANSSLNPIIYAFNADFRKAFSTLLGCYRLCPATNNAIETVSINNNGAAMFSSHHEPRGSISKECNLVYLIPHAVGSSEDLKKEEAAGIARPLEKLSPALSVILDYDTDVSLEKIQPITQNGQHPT
- TEST NAME: D1 cAMP HTRF Assay
- Assay type: cell-based
- COND: HEK293T/hD1#1 stable cell line, 30 min at room temperature; footnote a = geometric mean of ≧7 determinations
RECORDED METRIC: log10 of EC50 (log10 of the value in nM)
Form field - Quantity: EC50; Unit: nM; Scale: log10

Consider the worked cases shown below.
>>> value_observed("Cc1ncnc(C)c1-c1ccc(Oc2nccc3[nH]ccc23)cc1F")
2.25
>>> value_observed("Cc1ncnc(C)c1-c1ccc(Oc2nccc3[nH]ncc23)cc1Cl")
2.39
>>> value_observed("Cc1n[nH]c(=O)c(C)c1-c1ccc(Oc2nccc3[nH]nc(C)c23)cc1")
1.82
>>> value_observed("Cc1ncnc(C#N)c1-c1ccc(Oc2nccc3[nH]ncc23)cc1F")
3.13
>>> value_observed("Cc1cc(Oc2nccc3[nH]ncc23)c(F)cc1-c1c(C)ncnc1C")
2.87
>>> value_observed("Cc1n[nH]c(=O)c(C)c1-c1ccc(Oc2nccc3[nH]ccc23)cc1")
1.28
>>> value_observed("Cc1cc(Oc2nccc3n[nH]cc23)ccc1-c1c(C)n[nH]c(=O)c1C (single isomer, unassigned) [Example 4]")
1.02
>>> value_observed("Cc1ncnc(C)c1-c1ccc(Oc2nccc3[nH]ccc23)cc1Cl")
2.01

The following compounds each have a reported value; give each one's log10 of EC50.
1. Cc1cc(Oc2nccc3[nH]ncc23)ccc1-c1c(C)ncnc1C
2. Cc1cc(Oc2nccc3[nH]cc(C#N)c23)ccc1-c1c(C)ncnc1C
3. Cc1ncnc(C)c1-c1ccc(Oc2nccc3[nH]ncc23)cc1C#N
4. Cc1cc(Oc2nccc3[nH]ccc23)ccc1-c1cn[nH]c(=O)c1C

[2.75, 1.74, 3.38, 1.74]

Item: Cc1cc(Oc2nccc3n[nH]cc23)ccc1-c1c(C)ncc(=O)n1C (single isomer, unassigned) [Example 39] | log10 of EC50: 2.23
